Tested on: PPARg homodimer (NR concentration 180 nM)
PROTOCOL DETAILS: PBM binding z-score (relative to random genomic background probes); higher = stronger binding; sequences stand for … in GC…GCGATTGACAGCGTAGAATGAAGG
Measured PBM binding z-score by item

>  <PRIMARY SEQUENCE>
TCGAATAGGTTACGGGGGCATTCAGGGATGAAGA

>  <TARGET DESC>
PPARg homodimer (NR concentration 180 nM)

>  <PBM binding z-score>
2.1

$$$$
>  <PRIMARY SEQUENCE>
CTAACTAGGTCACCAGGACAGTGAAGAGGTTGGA

>  <TARGET DESC>
PPARg homodimer (NR concentration 180 nM)

>  <PBM binding z-score>
1.88

$$$$
>  <PRIMARY SEQUENCE>
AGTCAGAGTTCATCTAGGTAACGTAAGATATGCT

>  <TARGET DESC>
PPARg homodimer (NR concentration 180 nM)

>  <PBM binding z-score>
1.46

$$$$
>  <PRIMARY SEQUENCE>
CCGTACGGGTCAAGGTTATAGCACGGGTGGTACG

>  <TARGET DESC>
PPARg homodimer (NR concentration 180 nM)

>  <PBM binding z-score>
1.37

$$$$
>  <PRIMARY SEQUENCE>
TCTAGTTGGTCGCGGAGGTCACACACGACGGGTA

>  <TARGET DESC>
PPARg homodimer (NR concentration 180 nM)

>  <PBM binding z-score>
2.9

$$$$
>  <PRIMARY SEQUENCE>
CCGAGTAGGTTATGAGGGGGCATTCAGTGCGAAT

>  <TARGET DESC>
PPARg homodimer (NR concentration 180 nM)

>  <PBM binding z-score>
1.86

$$$$
>  <PRIMARY SEQUENCE>
ATATGGAGGTTAGCTGGGGTCATTCAGACTAGGC

>  <TARGET DESC>
PPARg homodimer (NR concentration 180 nM)

>  <PBM binding z-score>
2.73

$$$$
>  <PRIMARY SEQUENCE>
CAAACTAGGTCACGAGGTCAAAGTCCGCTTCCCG

>  <TARGET DESC>
PPARg homodimer (NR concentration 180 nM)

>  <PBM binding z-score>
3.45

$$$$
>  <PRIMARY SEQUENCE>
CTATGTAGGATAAGGGGGTCATTCAGTTTGAAAG

>  <TARGET DESC>
PPARg homodimer (NR concentration 180 nM)

>  <PBM binding z-score>
3.61

$$$$
>  <PRIMARY SEQUENCE>
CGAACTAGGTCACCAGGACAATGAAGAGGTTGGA

>  <TARGET DESC>
PPARg homodimer (NR concentration 180 nM)

>  <PBM binding z-score>
1.94

$$$$
>  <PRIMARY SEQUENCE>
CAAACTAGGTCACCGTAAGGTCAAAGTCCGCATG

>  <TARGET DESC>
PPARg homodimer (NR concentration 180 nM)

>  <PBM binding z-score>
6.09

$$$$
>  <PRIMARY SEQUENCE>
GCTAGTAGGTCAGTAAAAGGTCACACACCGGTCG

>  <TARGET DESC>
PPARg homodimer (NR concentration 180 nM)

>  <PBM binding z-score>
6.95

$$$$
>  <PRIMARY SEQUENCE>
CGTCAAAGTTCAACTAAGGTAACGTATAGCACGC

>  <TARGET DESC>
PPARg homodimer (NR concentration 180 nM)

>  <PBM binding z-score>
3.82

$$$$
>  <PRIMARY SEQUENCE>
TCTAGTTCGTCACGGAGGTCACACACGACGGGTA

>  <TARGET DESC>
PPARg homodimer (NR concentration 180 nM)

>  <PBM binding z-score>
6.1

$$$$
>  <PRIMARY SEQUENCE>
TCTAGTTGGTCACGGAGGTCACACGCGACGGGTA

>  <TARGET DESC>
PPARg homodimer (NR concentration 180 nM)

>  <PBM binding z-score>
3.12

$$$$
>  <PRIMARY SEQUENCE>
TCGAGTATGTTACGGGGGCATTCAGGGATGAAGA

>  <TARGET DESC>
PPARg homodimer (NR concentration 180 nM)

>  <PBM binding z-score>
0.827

$$$$
>  <PRIMARY SEQUENCE>
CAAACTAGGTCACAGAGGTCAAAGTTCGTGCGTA

>  <TARGET DESC>
PPARg homodimer (NR concentration 180 nM)

>  <PBM binding z-score>
6.43

$$$$
>  <PRIMARY SEQUENCE>
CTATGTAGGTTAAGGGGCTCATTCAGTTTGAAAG

>  <TARGET DESC>
PPARg homodimer (NR concentration 180 nM)

>  <PBM binding z-score>
1.36

$$$$
>  <PRIMARY SEQUENCE>
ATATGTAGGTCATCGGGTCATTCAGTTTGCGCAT

>  <TARGET DESC>
PPARg homodimer (NR concentration 180 nM)

>  <PBM binding z-score>
5.23

$$$$
>  <PRIMARY SEQUENCE>
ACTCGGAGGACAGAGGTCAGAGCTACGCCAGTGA

>  <TARGET DESC>
PPARg homodimer (NR concentration 180 nM)

>  <PBM binding z-score>
1.89

$$$$
>  <PRIMARY SEQUENCE>
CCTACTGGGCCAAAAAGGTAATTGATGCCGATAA

>  <TARGET DESC>
PPARg homodimer (NR concentration 180 nM)

>  <PBM binding z-score>
-0.39

$$$$
>  <PRIMARY SEQUENCE>
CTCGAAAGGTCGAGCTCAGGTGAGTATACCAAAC

>  <TARGET DESC>
PPARg homodimer (NR concentration 180 nM)

>  <PBM binding z-score>
2.06

$$$$
>  <PRIMARY SEQUENCE>
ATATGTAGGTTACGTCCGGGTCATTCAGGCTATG

>  <TARGET DESC>
PPARg homodimer (NR concentration 180 nM)

>  <PBM binding z-score>
3.1

$$$$
>  <PRIMARY SEQUENCE>
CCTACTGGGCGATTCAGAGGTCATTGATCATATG

>  <TARGET DESC>
PPARg homodimer (NR concentration 180 nM)

>  <PBM binding z-score>
1.38

$$$$
>  <PRIMARY SEQUENCE>
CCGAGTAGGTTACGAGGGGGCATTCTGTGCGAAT

>  <TARGET DESC>
PPARg homodimer (NR concentration 180 nM)

>  <PBM binding z-score>
2.19

$$$$
>  <PRIMARY SEQUENCE>
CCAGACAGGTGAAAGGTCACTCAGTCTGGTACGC

>  <TARGET DESC>
PPARg homodimer (NR concentration 180 nM)

>  <PBM binding z-score>
3.92

$$$$
>  <PRIMARY SEQUENCE>
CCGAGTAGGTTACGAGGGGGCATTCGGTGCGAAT

>  <TARGET DESC>
PPARg homodimer (NR concentration 180 nM)

>  <PBM binding z-score>
1.85

$$$$
>  <PRIMARY SEQUENCE>
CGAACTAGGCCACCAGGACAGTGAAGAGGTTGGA

>  <TARGET DESC>
PPARg homodimer (NR concentration 180 nM)

>  <PBM binding z-score>
-0.263

$$$$
>  <PRIMARY SEQUENCE>
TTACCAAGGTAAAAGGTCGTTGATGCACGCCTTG

>  <TARGET DESC>
PPARg homodimer (NR concentration 180 nM)

>  <PBM binding z-score>
1.67

$$$$
>  <PRIMARY SEQUENCE>
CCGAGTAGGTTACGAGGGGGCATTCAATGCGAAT

>  <TARGET DESC>
PPARg homodimer (NR concentration 180 nM)

>  <PBM binding z-score>
2.11

$$$$
>  <PRIMARY SEQUENCE>
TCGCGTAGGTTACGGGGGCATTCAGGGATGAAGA

>  <TARGET DESC>
PPARg homodimer (NR concentration 180 nM)

>  <PBM binding z-score>
1.25

$$$$
>  <PRIMARY SEQUENCE>
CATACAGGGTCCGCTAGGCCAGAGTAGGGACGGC

>  <TARGET DESC>
PPARg homodimer (NR concentration 180 nM)

>  <PBM binding z-score>
-0.436

$$$$
>  <PRIMARY SEQUENCE>
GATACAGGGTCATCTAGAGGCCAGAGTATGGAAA

>  <TARGET DESC>
PPARg homodimer (NR concentration 180 nM)

>  <PBM binding z-score>
3.91

$$$$
>  <PRIMARY SEQUENCE>
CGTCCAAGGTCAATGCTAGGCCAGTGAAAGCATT

>  <TARGET DESC>
PPARg homodimer (NR concentration 180 nM)

>  <PBM binding z-score>
2.78

$$$$
>  <PRIMARY SEQUENCE>
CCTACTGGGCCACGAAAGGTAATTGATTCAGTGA

>  <TARGET DESC>
PPARg homodimer (NR concentration 180 nM)

>  <PBM binding z-score>
0.00713

$$$$
>  <PRIMARY SEQUENCE>
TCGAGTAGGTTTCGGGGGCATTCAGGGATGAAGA

>  <TARGET DESC>
PPARg homodimer (NR concentration 180 nM)

>  <PBM binding z-score>
1.79

$$$$
>  <PRIMARY SEQUENCE>
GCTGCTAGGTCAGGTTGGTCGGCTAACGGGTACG

>  <TARGET DESC>
PPARg homodimer (NR concentration 180 nM)

>  <PBM binding z-score>
0.576

$$$$
>  <PRIMARY SEQUENCE>
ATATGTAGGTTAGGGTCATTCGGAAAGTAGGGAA

>  <TARGET DESC>
PPARg homodimer (NR concentration 180 nM)

>  <PBM binding z-score>
3.85

$$$$
>  <PRIMARY SEQUENCE>
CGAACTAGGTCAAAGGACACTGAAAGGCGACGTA

>  <TARGET DESC>
PPARg homodimer (NR concentration 180 nM)

>  <PBM binding z-score>
3.64

$$$$
>  <PRIMARY SEQUENCE>
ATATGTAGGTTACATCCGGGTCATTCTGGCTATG

>  <TARGET DESC>
PPARg homodimer (NR concentration 180 nM)

>  <PBM binding z-score>
1.91

$$$$
>  <PRIMARY SEQUENCE>
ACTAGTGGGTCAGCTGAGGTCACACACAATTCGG

>  <TARGET DESC>
PPARg homodimer (NR concentration 180 nM)

>  <PBM binding z-score>
4.18

$$$$
>  <PRIMARY SEQUENCE>
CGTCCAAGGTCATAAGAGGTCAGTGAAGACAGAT

>  <TARGET DESC>
PPARg homodimer (NR concentration 180 nM)

>  <PBM binding z-score>
7.68

$$$$
>  <PRIMARY SEQUENCE>
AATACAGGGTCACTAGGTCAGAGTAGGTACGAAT

>  <TARGET DESC>
PPARg homodimer (NR concentration 180 nM)

>  <PBM binding z-score>
4.65

$$$$
>  <PRIMARY SEQUENCE>
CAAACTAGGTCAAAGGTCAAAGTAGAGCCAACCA

>  <TARGET DESC>
PPARg homodimer (NR concentration 180 nM)

>  <PBM binding z-score>
4.85

$$$$
>  <PRIMARY SEQUENCE>
CCAAGTAGGTTACGAGGGGGCATTCAGTGCGAAT

>  <TARGET DESC>
PPARg homodimer (NR concentration 180 nM)

>  <PBM binding z-score>
2.19

$$$$
>  <PRIMARY SEQUENCE>
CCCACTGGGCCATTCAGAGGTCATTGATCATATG

>  <TARGET DESC>
PPARg homodimer (NR concentration 180 nM)

>  <PBM binding z-score>
1.93

$$$$
>  <PRIMARY SEQUENCE>
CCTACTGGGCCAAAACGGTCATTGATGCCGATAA

>  <TARGET DESC>
PPARg homodimer (NR concentration 180 nM)

>  <PBM binding z-score>
0.299

$$$$
>  <PRIMARY SEQUENCE>
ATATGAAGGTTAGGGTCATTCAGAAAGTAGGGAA

>  <TARGET DESC>
PPARg homodimer (NR concentration 180 nM)

>  <PBM binding z-score>
3.99

$$$$
>  <PRIMARY SEQUENCE>
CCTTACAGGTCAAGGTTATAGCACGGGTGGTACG

>  <TARGET DESC>
PPARg homodimer (NR concentration 180 nM)

>  <PBM binding z-score>
3.36

$$$$
>  <PRIMARY SEQUENCE>
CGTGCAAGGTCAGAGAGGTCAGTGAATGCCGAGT

>  <TARGET DESC>
PPARg homodimer (NR concentration 180 nM)

>  <PBM binding z-score>
2.85

$$$$
>  <PRIMARY SEQUENCE>
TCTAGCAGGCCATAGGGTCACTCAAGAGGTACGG

>  <TARGET DESC>
PPARg homodimer (NR concentration 180 nM)

>  <PBM binding z-score>
0.644

$$$$
